# System: HEK-293T
# procedure_summary: Multiplex assay against HEK293T
# Assay type: toxicity, cell-based
# assay_setup: human, 24 h, 1 µM, compound concentration 1 uM, replicate 2
Population Apoptotic (%) strictly less than 40% = satisfied. Otherwise not satisfied.

# compound, label_value
rows = [
    ("O=C1COc2nccc(-c3ccccc3F)c2CN1Cc1cc(C(F)(F)F)cc(C(F)(F)F)c1", "not satisfied"),
    ("CNC[C@H](O)c1ccc(O)c(O)c1 [EPINEPHRINE]", "satisfied"),
    ("Cc1ccc(-c2ccc(F)cc2COc2ccc(CCC(=O)O)cc2)cc1", "not satisfied"),
    ("O=C(O)Cc1ccccc1Nc1c(Cl)cccc1Cl", "not satisfied"),
    ("Cc1ccc(F)cc1C(=O)Nc1ccc(C(=O)N2Cc3cccn3Cc3ccccc32)c(Cl)c1", "satisfied"),
    ("CN1CCN2c3ncccc3Cc3ccccc3C2C1 (centres undefined)", "not satisfied"),
    ("O=S(=O)(c1ccccc1)c1cnc2c(N3CCNCC3)cccc2c1 [INTEPIRDINE]", "not satisfied"),
    ("C[C@H]1[C@H]2CC[C@H]3[C@@H]4CC=C5C[C@@H](N(C)C)CC[C@]5(C)[C@H]4CC[C@]23CN1C", "satisfied"),
]

* * *

# System: HEK-293T
# procedure_summary: Multiplex assay against HEK293T
# Type: toxicity, cell-based
# assay_setup: human, 12 h, 10 µM, compound concentration 10 uM, replicate 2
result_type: Population Tubulin-Different-Phenotype (%)

# compound, target_system, scale_unit, result_value
measured = [
    ("c1cc(OCCCN2CCCCC2)ccc1CN1CCCCC1 [JNJ-5207852]", "HEK-293T", "%", 41),
    ("CN1CCN(c2nc3cc(C(F)(F)F)ccc3n3cccc23)CC1.O=C(O)/C=C\\C(=O)O.O=C(O)/C=C\\C(=O)O", "HEK-293T", "%", 66),
    ("Cc1ccc(-c2ccc(F)cc2COc2ccc(CCC(=O)O)cc2)cc1", "HEK-293T", "%", 15),
    ("C[C@H]1[C@H]2CC[C@H]3[C@@H]4CC=C5C[C@@H](N(C)C)CC[C@]5(C)[C@H]4CC[C@]23CN1C [CONESSINE]", "HEK-293T", "%", 30),
    ("CCCN1CCC[C@@H]2Cc3n[nH]cc3C[C@H]21.Cl [QUINPIROLE HYDROCHLORIDE]", "HEK-293T", "%", 26),
]

* * *

# Test system: Fibroblast
# procedure_summary: Multiplex assay against human fibroblast
# Format: toxicity, cell-based
# assay_setup: 24 h, 1 µM, compound concentration 1 uM, replicate 2
The entries below come with measured Population Mitochondria Different-Phenotype (%) values attached.
result_type: Population Mitochondria Different-Phenotype (%)

# compound, result_value
measured = [
    ("COc1cc(NC(=O)CCN2CCC(OC(=O)Nc3ccccc3-c3ccccc3)CC2)c(Cl)cc1CNC[C@H](O)c1ccc(O)c2[nH]c(=O)ccc12", 10),
    ("O=C(NCCO)c1cccc(-c2cc(Nc3ccc(OC(F)(F)F)cc3)ncn2)c1", 5),
    ("CSCC[C@H](NC=O)C(=O)N[C@@H](CC(C)C)C(=O)N[C@@H](Cc1ccccc1)C(=O)O", 9),
    ("O=C(NCC(=O)N1CC[C@H](N[C@H]2CC[C@@](O)(c3ccc(-c4ncccn4)cn3)CC2)C1)c1cccc(C(F)(F)F)c1", 1),
    ("O=C(O)Cc1ccccc1Nc1c(Cl)cccc1Cl", 6),
    ("CSc1ccccc1N1CCN(CCCCCC(=O)NC2CCCc3ccccc32)CC1.Cl (configuration not stated)", 11),
    ("C[C@H]1[C@H]2CC[C@H]3[C@@H]4CC=C5C[C@@H](N(C)C)CC[C@]5(C)[C@H]4CC[C@]23CN1C", 6),
]
